tested on: HEK293; test: Cytotoxicity against HEK293 cells assessed as cell viability after 72 hrs by resazurin-based plate reader analysis; details: Homo sapiens, HEK293, 72 h
measurement kind: IC50 (nM)
Just the number in nM, nothing appended.

Query string: Could you tell me which IC50 is on file for COc1ccc(C[C@H](N)C(=O)N[C@H]2[C@@H](O)[C@H](n3cnc4c(N(C)C)ncnc43)O[C@@H]2CO)cc1 ?
Result string: 361

* * *

Kindly state viability at 72 h, 20 µM for each of the entries shown.
test: Cytotoxicity against HEK293 cells assessed as cell viability at 20 uM after 72 hrs by resazurin-based plate reader analysis; settings: human, read-out: Activity
Just the number in %, nothing appended.

Query string: Could you tell me which viability at 72 h, 20 µM is on file for C[C@H]1[C@H](OC(=O)CCC(=O)O)O[C@@H]2O[C@@]3(C)CC[C@H]4[C@H](C)CC[C@@H]1[C@@]24OO3 [ARTESUNATE] ?
Result string: 73

Query string: Could you tell me which viability at 72 h, 20 µM is on file for C[C@H]1[C@@H](O)O[C@@H]2O[C@@]3(C)CC[C@H]4[C@H](C)CC[C@@H]1[C@@]24OO3 ?
Result string: 50

Just for reference, ChEMBL document CHEMBL3758154 is where these values come from.
